Listing of recorded pEC50 by entry.
- Target: α2B Human Adrenergic Receptor (Homo sapiens, UniProt P18089)
- Construct: expressed in transfected cells; host or cells: Y-1 cells
- Sequence (P18089 1-450): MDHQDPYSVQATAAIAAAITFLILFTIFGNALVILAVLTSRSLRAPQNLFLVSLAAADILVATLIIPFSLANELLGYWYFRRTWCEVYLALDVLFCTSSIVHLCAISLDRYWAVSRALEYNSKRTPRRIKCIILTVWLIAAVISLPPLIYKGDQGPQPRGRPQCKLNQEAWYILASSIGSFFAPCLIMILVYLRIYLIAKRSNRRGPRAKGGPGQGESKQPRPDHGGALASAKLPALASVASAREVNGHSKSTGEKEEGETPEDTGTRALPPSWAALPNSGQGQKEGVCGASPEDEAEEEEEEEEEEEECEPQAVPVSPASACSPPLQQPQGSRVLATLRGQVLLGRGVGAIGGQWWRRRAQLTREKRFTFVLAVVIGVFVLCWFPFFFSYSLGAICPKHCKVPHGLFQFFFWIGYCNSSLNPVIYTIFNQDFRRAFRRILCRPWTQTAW
- Format: cell-based
pEC50: −log10 of the molar value.
Observable: pEC50

- FC(F)(F)c1nc2ccc(NC3=NCCN3)c(Br)c2[nH]1 [Example 46]: 6.23
- Cn1cnc2c(Br)c(NC3=NCCN3)ccc21 [Example 10]: 6.99
- Brc1cc(NC2=NCCN2)c(Br)c2[nH]cnc12 [Example 58]: 7.55
- Brc1cc2nc[nH]c2c(Br)c1NC1=NCCN1 [Example 50]: 7.68
- Ic1c(NC2=NCCN2)ccc2nc[nH]c12 [Example 5]: 7.33
- Cc1cc(NC2=NCCN2)cc2[nH]cnc12 [Example 52]: 7.14
